Listing: fold change of affinity of selected binders
molecular target: T1, Human CD137 ECD (human); assay: SPR, vs parent H183/L072
T1 construct: also called 4-1BB
T1 sequence (chain, as listed by the source limits assumed): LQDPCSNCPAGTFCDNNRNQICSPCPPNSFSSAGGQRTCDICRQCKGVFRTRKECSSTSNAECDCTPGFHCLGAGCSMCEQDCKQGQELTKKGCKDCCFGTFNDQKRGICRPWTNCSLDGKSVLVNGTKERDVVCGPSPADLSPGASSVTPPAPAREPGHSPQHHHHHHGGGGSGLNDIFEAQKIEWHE
Please respond with the number in fold and leave the unit unwritten.

// fold change of affinity lookup, binder = dBBDu183H V63T / dBBDu072L (antibody, name in Kabat numbering, V domains shown, as m1, one VH change) VH: QVQLVESGGGLVQPGRSLRLSCAASGFTFSNAWMHWVRQAPGKGLEWVAQIKDKGNAYAAYYAPSTKGRFTISRDDSKNSIYLQMNSLKTEDTAVYYCHYVHYASASTVLPAFGVDAWGQGTTVTVSS VL: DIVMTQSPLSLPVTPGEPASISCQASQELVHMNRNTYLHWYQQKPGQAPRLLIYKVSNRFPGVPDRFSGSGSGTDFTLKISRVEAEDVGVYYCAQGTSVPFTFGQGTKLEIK , result: 0.9

Record summary for dBBDu183H D101Q / dBBDu072L (antibody, name in Kabat numbering, V domains shown, as m1, one VH change) VH: QVQLVESGGGLVQPGRSLRLSCAASGFTFSNAWMHWVRQAPGKGLEWVAQIKDKGNAYAAYYAPSVKGRFTISRDDSKNSIYLQMNSLKTEDTAVYYCHYVHYASASTVLPAFGVQAWGQGTTVTVSS VL: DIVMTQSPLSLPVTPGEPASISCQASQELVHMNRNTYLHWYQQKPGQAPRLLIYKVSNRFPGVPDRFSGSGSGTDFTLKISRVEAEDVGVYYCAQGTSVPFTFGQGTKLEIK : reported fold change of affinity = 1.7

GET /value?item= dBBDu183H P100eD / dBBDu072L (antibody, name in Kabat numbering, V domains shown, as m1, one VH change) VH: QVQLVESGGGLVQPGRSLRLSCAASGFTFSNAWMHWVRQAPGKGLEWVAQIKDKGNAYAAYYAPSVKGRFTISRDDSKNSIYLQMNSLKTEDTAVYYCHYVHYASASTVLDAFGVDAWGQGTTVTVSS VL: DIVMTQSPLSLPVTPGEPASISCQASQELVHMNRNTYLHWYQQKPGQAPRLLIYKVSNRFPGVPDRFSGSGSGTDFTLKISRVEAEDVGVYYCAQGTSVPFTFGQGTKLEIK &field=fold change of affinity returns 0.3

Each recorded value in this set is attributed to patent US20210388087A1.
